- assay-target: UniProt:P30556
- Sequence (P30556 whole entry): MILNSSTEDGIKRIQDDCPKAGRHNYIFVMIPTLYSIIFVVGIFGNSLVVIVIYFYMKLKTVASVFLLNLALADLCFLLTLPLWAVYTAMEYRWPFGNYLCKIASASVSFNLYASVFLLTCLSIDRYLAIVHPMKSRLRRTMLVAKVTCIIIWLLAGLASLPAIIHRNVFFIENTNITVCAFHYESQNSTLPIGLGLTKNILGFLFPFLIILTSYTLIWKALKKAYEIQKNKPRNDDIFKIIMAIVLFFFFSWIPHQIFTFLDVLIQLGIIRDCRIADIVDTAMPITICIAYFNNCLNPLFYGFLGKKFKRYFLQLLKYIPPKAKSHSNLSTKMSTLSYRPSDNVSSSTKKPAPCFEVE
- experiment-notes: cell-based
- setup-conditions: section of the 42nd table ending at r951, example numbering restarts after the DiscoveRx section; read-out: β-arrestin2 EC50
test-readout: pEC50
Schema: pEC50 number; meaning minus log10 of the concentration expressed in molar units.

Would you please look over these solved cases?
compound="CCc1nc2c(C)cc(C)nc2n1Cc1ccc(-c2cc(-c3ccccc3)ccc2-c2nn[nH]n2)cc1F [Example 264]" assay_target=UniProt:P30556 result=7.89
compound="CCc1nc2c(C)cc(C)nc2n1Cc1ccc(-c2cc(-c3cn(CC(C)C)nn3)ccc2-c2nnn[nH]2)cc1 [Example 240]" assay_target=UniProt:P30556 result=6.46
compound="CCCCc1nc(Cl)c(C(=O)O)n1Cc1ccc(-c2cc(-c3ccccc3)ccc2C(=O)O)cc1 [Example 410]" assay_target=UniProt:P30556 result=7.01
compound="CCC1=NC2(CCOC2)C(=O)N1Cc1ccc(-c2cc(-c3cccc(C)c3)ccc2-c2nnn[nH]2)cc1 (single isomer, unassigned) [Example 169]" assay_target=UniProt:P30556 result=6.57
compound="CCCCc1nc(Cl)c(C(=O)O)n1Cc1ccc(-c2cc(C3CCCCC3)ccc2-c2nn[nH]n2)cc1 [Example 424]" assay_target=UniProt:P30556 result=7.45

Exam item: Value lookup for pEC50; key = CCCC1=NC2(CCOC2)C(=O)N1Cc1ccc(-c2cc(-c3cccc(C)c3)ccc2-c2nnn[nH]2)cc1 (single isomer, unassigned) [Example 163]
Marked response: 7.04

Exam item: Value lookup for pEC50; key = CCOc1nc2cccc(C(=O)O)c2n1Cc1ccc(-c2cc(-c3cccc(C)n3)ccc2-c2noc(=O)[nH]2)cc1 [Example 304]
Marked response: 7.42

Exam item: Value lookup for pEC50; key = CCOc1nc2cccc(C(=O)O)c2n1Cc1ccc(-c2cc(-c3ccccc3)ccc2C(=O)O)cc1 [Example 314]
Marked response: 7.44
